Listing of entries alongside the reported log10 of IC50.
- Target Desc: C-X-C chemokine receptor type 6 (Homo sapiens) (UniProt O00574)
- Sequence (O00574 whole entry, looked up): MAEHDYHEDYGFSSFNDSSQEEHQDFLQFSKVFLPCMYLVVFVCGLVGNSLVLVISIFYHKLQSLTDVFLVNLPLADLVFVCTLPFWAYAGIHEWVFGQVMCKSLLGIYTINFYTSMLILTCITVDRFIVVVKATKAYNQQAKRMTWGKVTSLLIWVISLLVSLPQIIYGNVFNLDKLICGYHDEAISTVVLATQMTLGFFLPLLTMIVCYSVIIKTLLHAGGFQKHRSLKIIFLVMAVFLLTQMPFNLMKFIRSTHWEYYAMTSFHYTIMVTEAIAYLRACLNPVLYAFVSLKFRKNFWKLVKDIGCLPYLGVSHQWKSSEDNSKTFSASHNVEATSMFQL
- Assay Text: potency against CXCR6 with APJ panel – cell-based, beta-arrestin, DiscoveRx, uHTS hits, dose response (AID 624129)
- Condition Info: CXCR6 beta-arrestin (DiscoveRx) antagonist cell assay, CXCR6, run 1, dose range 2
Please interpret these as log10 of IC50 where IC50 is in µM.

Below are worked cases with known answers.
Molecule | log10 of IC50
C=C1C(=O)OC2C1CCC(C)=C1C(=O)C3OC3(C)C12 (centres undefined) | 1.00
N#C/C(=C/c1ccc(-c2ccc([N+](=O)[O-])cc2)o1)C(=O)Nc1nc(-c2cccs2)cs1 | 1.65
N#Cc1c([N+](=O)[O-])cc([N+](=O)[O-])cc1S(=O)(=O)Cc1ccccc1 | 1.05

Which value of log10 of IC50 has been reported for COc1ccc(/C=C2/CCC(CN3CCOCC3)C2=O)cc1 (centres undefined) in the records?
1.16

Which value of log10 of IC50 has been reported for `C=C1CCN([C@@H](Cc2ccccc2)C(=O)NCCC(C)C)S(=O)(=O)c2ccccc21` in the records?
1.23

Which value of log10 of IC50 has been reported for `COc1cc(/C=C/c2ccc3cccc(O)c3n2)cc(OC)c1OC` in the records?
0.53

Which value of log10 of IC50 has been reported for CC(Oc1ccccc1)C(=O)Nc1nc(-c2ccccn2)cs1 (centres undefined) in the records?
1.06

Which value of log10 of IC50 has been reported for `Cc1ccc(NS(=O)(=O)c2cc([N+](=O)[O-])ccc2NNC(=S)Nc2cc(C)ccc2C)c(C)c1` in the records?
1.33

Which value of log10 of IC50 has been reported for `COc1cc(/C=C/C(=O)c2ccc(C)c([N+](=O)[O-])c2)cc(OC)c1O` in the records?
1.21

###

- Target Desc: C-X-C chemokine receptor type 6 (Homo sapiens)
- Assay Text: potency against CXCR6 with APJ panel – cell-based, beta-arrestin, DiscoveRx, uHTS hits, dose response (AID 624129)
- Condition Info: CXCR6 beta-arrestin (DiscoveRx) antagonist cell assay, CXCR6, run 1, dose range 2, at 80 µM (top of the series)
Experimental Readout: inhibition (%)
Just the number please, in %, no unit attached.

Below are worked cases with known answers.
Compound | inhibition [%]
N#CC(C#N)=C1C=CC=CN1/C(=C\c1ccco1)C(=O)c1ccc(Cl)cc1 | 125
S=C(NCCCN1CCOCC1)Nc1ccc(Cl)cc1 | 118
O=C1C=CC(=O)N1c1cccc(-c2ccccc2)c1 | 21.2
Cc1nc2c(-c3ccc(Cl)cc3)c(C)[nH]n2c(=O)c1Cc1ccccc1 | -28.7
C=C1CC2(OC1=O)c1ccccc1CCc1ccccc12 | 58.6
COC(=O)[C@@H]1[C@@H](C#N)C2(c3ccccc3-c3ccccc32)N(c2ccc(Cl)cc2)N1C#N | 11.1

# returns recorded inhibition (system: C-X-C chemokine receptor type 6 (Homo sapiens)) for `O=C(OCn1ncc(Cl)c(Cl)c1=O)c1cccc(C(F)(F)F)c1`
128

# returns recorded inhibition (system: C-X-C chemokine receptor type 6 (Homo sapiens)) for `COc1cc(/C=C/c2ccc3cccc(O)c3n2)ccc1O`
131

# returns recorded inhibition (system: C-X-C chemokine receptor type 6 (Homo sapiens)) for `O=[N+]([O-])c1c(NCCCO)cc(Sc2nc3ccccc3s2)c2nonc12`
118

# returns recorded inhibition (system: C-X-C chemokine receptor type 6 (Homo sapiens)) for CCC(=O)OCOc1ccc(/C=C2/CCC(CN(C)C)C2=O)cc1 (stereo not drawn)
124

# returns recorded inhibition (system: C-X-C chemokine receptor type 6 (Homo sapiens)) for `CC(=NNc1nc2ccccc2s1)c1ncccn1`
125

# returns recorded inhibition (system: C-X-C chemokine receptor type 6 (Homo sapiens)) for `Cc1cc(S(=O)(=O)c2ccc(Cl)cc2)nc(S(=O)(=O)c2ccc(Cl)cc2)c1C#N`
93.1

# returns recorded inhibition (system: C-X-C chemokine receptor type 6 (Homo sapiens)) for `COC(=O)C1=C(c2ccc(-c3ccccc3)c(F)c2)C[C@@H]2CC[C@H]1N2C(=O)N1CCC(C)CC1`
88

###

- Target Desc: C-X-C chemokine receptor type 6 (Homo sapiens)
- Assay Text: potency against CXCR6 with APJ panel – cell-based, beta-arrestin, DiscoveRx, uHTS hits, dose response (AID 624129)
- Condition Info: CXCR6 beta-arrestin (DiscoveRx) antagonist cell assay, CXCR6, run 2, dose range 1
Experimental Readout: IC50

Below are worked cases with known answers.
Molecule | IC50
Cc1nc2c(-c3ccc(Cl)cc3)c(C)[nH]n2c(=O)c1Cc1ccccc1 | > 80 µM
CC(=O)NC(=S)Nc1sc2c(c1C(N)=O)CCC(C)C2 (configuration not stated) | > 80 µM

# returns recorded IC50 (system: C-X-C chemokine receptor type 6 (Homo sapiens)) for O=[N+]([O-])c1ccc(S(=O)Cc2ccccc2)c([N+](=O)[O-])c1 (configuration not stated)
> 80 µM

# returns recorded IC50 (system: C-X-C chemokine receptor type 6 (Homo sapiens)) for O=C1C(Cc2ccccc2)Nc2ncnc(N3CCN(c4ccccc4)CC3)c2N1Cc1ccc(Br)cc1 (configuration not stated)
0.993 µM

# returns recorded IC50 (system: C-X-C chemokine receptor type 6 (Homo sapiens)) for `Oc1cccc2ccc(/C=C/c3cccs3)nc12`
6.87 µM

# returns recorded IC50 (system: C-X-C chemokine receptor type 6 (Homo sapiens)) for `COc1ccc([N+](=O)[O-])c(S(=O)(=O)c2ccc(Cl)cc2)n1`
61.5 µM

# returns recorded IC50 (system: C-X-C chemokine receptor type 6 (Homo sapiens)) for `Cn1nc([N+](=O)[O-])nc1Sc1cccc2cccnc12`
14.2 µM

###

- Target Desc: C-C chemokine receptor type 6 (Homo sapiens)
- Assay Text: potency against CXCR6 with APJ panel – cell-based, beta-arrestin, DiscoveRx, uHTS hits, dose response (AID 624129)
- Condition Info: CXCR6 beta-arrestin (DiscoveRx) antagonist cell assay, CCR6, run 2, dose range 1
Listing of entries alongside the reported log10 IC50.
Please interpret these as log10 of IC50 where IC50 is in µM.

Below are worked cases with known answers.
Compound | log10 IC50
COc1ccc(N2C(=O)CC(Sc3nnnn3-c3ccc(F)cc3)C2=O)cc1 (configuration not stated) | 1.03
Cc1cccnc1Nc1nc(-c2ccccn2)cs1 | 0.17
Cc1cc(S(=O)(=O)c2ccc(Cl)cc2)nc(S(=O)(=O)c2ccc(Cl)cc2)c1C#N | 1.48
O=C(CN1CCN(S(=O)(=O)c2ccc(Br)cc2)CC1)Nc1ccc2c(c1)OCO2 | 1.31
O=C(Nc1nc2c(F)cc(F)cc2s1)c1ccccn1 | 0.15

# returns recorded log10 IC50 (system: C-C chemokine receptor type 6 (Homo sapiens)) for `O=C(CSc1nc(-c2ccco2)cc(C(F)(F)F)n1)NCCCn1ccnc1`
1.32

# returns recorded log10 IC50 (system: C-C chemokine receptor type 6 (Homo sapiens)) for `CCC(=O)OCCNc1cc(Sc2nc3ccccc3s2)c2nonc2c1[N+](=O)[O-]`
0.93

# returns recorded log10 IC50 (system: C-C chemokine receptor type 6 (Homo sapiens)) for `CCOc1ccccc1NC(=O)c1nc(S(=O)(=O)Cc2ccccc2)ncc1Cl`
0.83

# returns recorded log10 IC50 (system: C-C chemokine receptor type 6 (Homo sapiens)) for `CC(C)(C)C(=O)NC(=S)NNC(=O)c1sc2ccccc2c1Cl`
1.53

# returns recorded log10 IC50 (system: C-C chemokine receptor type 6 (Homo sapiens)) for `CCN(CC)CC(C)(C)C(=O)/C=C/c1ccc(/C=C/C(=O)C(C)(C)CN(CC)CC)cc1`
0.47

# returns recorded log10 IC50 (system: C-C chemokine receptor type 6 (Homo sapiens)) for COc1cc2c(cc1OC)C1(CCCC1)CNC2c1cccc([N+](=O)[O-])c1 (configuration not stated)
1.11

# returns recorded log10 IC50 (system: C-C chemokine receptor type 6 (Homo sapiens)) for `Cc1ccc(-c2oc3ccccc3c(=O)c2O)cc1`
0.96

###

- Target Desc: Apelin receptor (Homo sapiens) (UniProt P35414)
- Assay Text: potency against CXCR6 with APJ panel – cell-based, beta-arrestin, DiscoveRx, uHTS hits, dose response (AID 624129)
- Condition Info: CXCR6 beta-arrestin (DiscoveRx) antagonist cell assay, APJ, run 2, dose range 1
Experimental Readout: log10(IC50) (log10 of the value in µM)
Please interpret these as log10 of IC50 where IC50 is in µM.

Below are worked cases with known answers.
Molecule | Target Desc | Measured
CC(Oc1ccc(F)cc1)C(=O)Nc1nc(-c2ccccn2)cs1 (stereo unspecified) | Apelin receptor (Homo sapiens) (UniProt P35414) | 0.91
O=C(Nc1nnc(SCc2ccc(F)cc2)s1)c1ccccn1 | Apelin receptor (Homo sapiens) (UniProt P35414) | 0.59
CCCC(=O)OCCNc1cc(Sc2nccn2C)c2nonc2c1[N+](=O)[O-] | Apelin receptor (Homo sapiens) (UniProt P35414) | 0.65
NNc1nc(-c2ccccc2)cc(-c2ccccc2O)n1 | Apelin receptor (Homo sapiens) (UniProt P35414) | 0.99
CC(=O)OC1C2(CC3N4C(=O)C5(CO)SSC4(CC31O)C(=O)N5C)OC(C)C(C)(C)C2=O (stereo unspecified) | Apelin receptor (Homo sapiens) (UniProt P35414) | -0.04
N#CC(C#N)=C1C=CC=CN1/C(=C\c1ccccc1Cl)C(=O)c1ccccc1 | Apelin receptor (Homo sapiens) (UniProt P35414) | 1.07
CCS(=O)(=O)c1ncc(Cl)c(C(=O)Nc2ccc(S(=O)(=O)N(C)c3ccccc3)cc2)n1 | Apelin receptor (Homo sapiens) (UniProt P35414) | 0.77
Cc1ccc(CN2C(=O)C(Cc3ccccc3)Nc3ncnc(N4CCN(c5ccccc5)CC4)c32)cc1 (stereo unspecified) | Apelin receptor (Homo sapiens) (UniProt P35414) | 0.70
O=[N+]([O-])c1c(NCCCO)cc(Sc2nc3ccccc3s2)c2nonc12 | Apelin receptor (Homo sapiens) (UniProt P35414) | 1.07
COc1ccc([N+](=O)[O-])c(S(=O)(=O)c2ccc(Cl)cc2)n1 | Apelin receptor (Homo sapiens) (UniProt P35414) | 1.71

Switching to the query record.
Which value of log10(IC50) has been reported for `CC(=O)Nc1ccc(Sc2ccc([N+](=O)[O-])o2)cc1` in the records?
1.19

These measurements were taken from PubChem BioAssay AID624129.
